- System: HUVECs (human umbilical vein endothelial cells)
- MEASUREMENT DESCRIPTION: Inhibitory effect of fumagillol derivative on HUVEC cell growth (colorimetry)
- Assay type: cell-based
- EXPERIMENTAL SETUP: Homo sapiens, HUVEC, HUVEC growth, cultured 2–3 days with compound, absorption at 490 nm; read-out: IC50
Please go through the items and note down their IC50.
// note: answer is a bare numeric in ng/mL

So what does the record say about IC50 for CO[C@@H]1[C@H](OC(=O)CNC(C)C)CC[C@]2(CO2)[C@H]1[C@@]1(C)OC1CC=C(C)C (stereo partly shown) [Ex. 42, 6-O-(isopropylamino)acetyl fumagillol] ? 12

Note, next up: CO[C@@H]1[C@H](OC(=O)CNC(C)CN(C)C)CC[C@]2(CO2)[C@H]1[C@@]1(C)OC1CC=C(C)C (stereo partly shown) [Ex. 68] 240

Note, next up: CO[C@@H]1[C@H](OC(=O)CNC#CCl)CC[C@]2(CO2)[C@H]1[C@@]1(C)OC1CC=C(C)C (stereo partly shown) [Ex. 62] 340

Note, next up: COc1ccc(NCC(=O)O[C@@H]2CC[C@]3(CO3)[C@@H]([C@@]3(C)OC3CC=C(C)C)[C@@H]2OC)c(OC)c1 (stereo partly shown) [Ex. 3] 0.09

Note, next up: COc1ccc(NCC(=O)O[C@@H]2CC[C@]3(CO3)[C@@H]([C@@]3(C)OC3CC=C(C)C)[C@@H]2OC)c(OC)c1OC (stereo partly shown) [Ex. 25] 0.31

Note, next up: CCCCCNCC(=O)O[C@@H]1CC[C@]2(CO2)[C@@H]([C@@]2(C)OC2CC=C(C)C)[C@@H]1OC (stereo partly shown) [Ex. 48, 6-O-(pentylamino)acetyl fumagillol] 3000

Note, next up: CO[C@@H]1[C@H](OC(=O)CNC(C)(C)CC(C)=O)CC[C@]2(CO2)[C@H]1[C@@]1(C)OC1CC=C(C)C (stereo partly shown) [Ex. 72] 330

Note, next up: COc1cc(NCC(=O)O[C@@H]2CC[C@]3(CO3)[C@@H]([C@@]3(C)OC3CC=C(C)C)[C@@H]2OC)c([N+](=O)[O-])cc1OC (stereo partly shown) [Ex. 5] 142

Note, next up: CO[C@@H]1[C@H](OC(=O)CNCC(C)N(C)C)CC[C@]2(CO2)[C@H]1[C@@]1(C)OC1CC=C(C)C (stereo partly shown) [Ex. 69] 260

Note, next up: CO[C@@H]1[C@H](OC(=O)CNc2ccc([N+](=O)[O-])cc2)CC[C@]2(CO2)[C@H]1[C@@]1(C)OC1CC=C(C)C (stereo partly shown) [Ex. 24, 6-O-(4-nitroaniline)acetyl fumagillol] 181

---

- Test system: HUVECs (human umbilical vein endothelial cells)
- MEASUREMENT DESCRIPTION: Inhibitory effect of fumagillol derivative on HUVEC cell growth (colorimetry)
- Format: cell-based
- EXPERIMENTAL SETUP: Homo sapiens, HUVEC, HUVEC growth, cultured 2–3 days with compound, absorption at 490 nm; read-out: IC50
EXPERIMENTAL ENDPOINT: log10 of IC50 (log10 of the value in ng/mL)
Please keep in mind that the values are log10 of IC50 expressed in ng/mL.

Item: COc1ccc(NCC(=O)O[C@@H]2CC[C@]3(CO3)[C@@H]([C@@]3(C)OC3CC=C(C)C)[C@@H]2OC)cn1 (stereo partly shown) Test system: HUVECs (human umbilical vein endothelial cells) Read-out: log10 of IC50 Value: ? -1.68

Note, next up: CO[C@@H]1[C@H](OC(=O)CNCC(C)(C)OC)CC[C@]2(CO2)[C@H]1[C@@]1(C)OC1CC=C(C)C (stereo partly shown) 2.25

Note, next up: C#CC(C)(C)NCC(=O)O[C@@H]1CC[C@]2(CO2)[C@@H]([C@@]2(C)OC2CC=C(C)C)[C@@H]1OC (stereo partly shown) 2.24

Note, next up: CO[C@@H]1[C@H](OC(=O)CNc2ccc(OCC(C)C)cc2)CC[C@]2(CO2)[C@H]1[C@@]1(C)OC1CC=C(C)C (stereo partly shown) -1.10

Note, next up: CCCOc1ccc(NCC(=O)O[C@@H]2CC[C@]3(CO3)[C@@H]([C@@]3(C)OC3CC=C(C)C)[C@@H]2OC)cc1 (stereo partly shown) -0.21

Note, next up: CCC(C)C(C)NCC(=O)O[C@@H]1CC[C@]2(CO2)[C@@H]([C@@]2(C)OC2CC=C(C)C)[C@@H]1OC (stereo partly shown) 2.46

Note, next up: CO[C@@H]1[C@H](OC(=O)CNc2ccc(OCCO)cc2)CC[C@]2(CO2)[C@H]1[C@@]1(C)OC1CC=C(C)C (stereo partly shown) 2.06

---

Please go through the items and note down their IC50.
- System: HUVECs (human umbilical vein endothelial cells)
- MEASUREMENT DESCRIPTION: Inhibitory effect of fumagillol derivative on HUVEC cell growth (colorimetry)
- Format: cell-based
- EXPERIMENTAL SETUP: Homo sapiens, HUVEC, HUVEC growth, cultured 2–3 days with compound, absorption at 490 nm; read-out: IC50
- Procedure: Using the HUVECs (human umbilical vein endothelial), the effect of the fumagillol derivative of the present invention on cell growth was evaluated. […] Colorimetry was performed to determine the extent of cell growth. […] Using a 96-well plate reader, absorption was measured at 490 nm. […]
// note: answer is a bare numeric in ng/mL

So what does the record say about IC50 for CCCNCC(=O)O[C@@H]1CC[C@]2(CO2)[C@@H]([C@@]2(C)OC2CC=C(C)C)[C@@H]1OC (stereo partly drawn) [Ex. 43, 6-O-(propylamino)acetyl fumagillol] ? 2400

Note, next up: CO[C@@H]1[C@H](OC(=O)CNC2CC2)CC[C@]2(CO2)[C@H]1[C@@]1(C)OC1CC=C(C)C (stereo partly drawn) [Ex. 63, 6-O-(cyclopropylamino)acetyl fumagillol] 0.008

Note, next up: CO[C@@H]1[C@H](OC(=O)CNc2ccc3c(c2)OCO3)CC[C@]2(CO2)[C@H]1[C@@]1(C)OC1CC=C(C)C (stereo partly drawn) [Ex. 23] 0.24

---

- Test system: HUVECs (human umbilical vein endothelial cells)
- MEASUREMENT DESCRIPTION: Inhibitory effect of fumagillol derivative on HUVEC cell growth (colorimetry)
- Assay type: cell-based
- EXPERIMENTAL SETUP: Homo sapiens, HUVEC, HUVEC growth, cultured 2–3 days with compound, absorption at 490 nm; read-out: IC50
EXPERIMENTAL ENDPOINT: IC50 (ng/mL)
// note: answer is a bare numeric in ng/mL

So what does the record say about IC50 for C=CCOc1ccc(NCC(=O)O[C@@H]2CC[C@]3(CO3)[C@@H]([C@@]3(C)OC3CC=C(C)C)[C@@H]2OC)cc1 (stereo partly drawn) ? 21

Note, next up: CNCCOc1ccc(NCC(=O)O[C@@H]2CC[C@]3(CO3)[C@@H]([C@@]3(C)OC3CC=C(C)C)[C@@H]2OC)cc1 (stereo partly drawn) 0.09

Note, next up: CO[C@@H]1[C@H](OC(=O)CNC2CCC(C(C)(C)C)CC2)CC[C@]2(CO2)[C@H]1[C@@]1(C)OC1CC=C(C)C (stereo partly drawn) 0.06

Note, next up: COc1cc(NCC(=O)O[C@@H]2CC[C@]3(CO3)[C@@H]([C@@]3(C)OC3CC=C(C)C)[C@@H]2OC)cc(O)c1OC (stereo partly drawn) 88

Note, next up: CO[C@@H]1[C@H](OC(=O)CNc2ccc(OC(C)=O)cc2)CC[C@]2(CO2)[C@H]1[C@@]1(C)OC1CC=C(C)C (stereo partly drawn) 109

Note, next up: CO[C@@H]1[C@H](OC(=O)CNC2CCC2)CC[C@]2(CO2)[C@H]1[C@@]1(C)OC1CC=C(C)C (stereo partly drawn) 0.07

Note, next up: COc1ccc(NCC(=O)O[C@@H]2CC[C@]3(CO3)[C@@H]([C@@]3(C)OC3CC=C(C)C)[C@@H]2OC)cc1CN(C)C (stereo partly drawn) 0.06

Note, next up: CCC(CC)NCC(=O)O[C@@H]1CC[C@]2(CO2)[C@@H]([C@@]2(C)OC2CC=C(C)C)[C@@H]1OC (stereo partly drawn) 24

Note, next up: CO[C@@H]1[C@H](OC(=O)CNc2ccc(O)cc2)CC[C@]2(CO2)[C@H]1[C@@]1(C)OC1CC=C(C)C (stereo partly drawn) [Ex. 21, 6-O-(4-hydroxyaniline)acetyl fumagillol] 185

Note, next up: CCNCC(=O)O[C@@H]1CC[C@]2(CO2)[C@@H]([C@@]2(C)OC2CC=C(C)C)[C@@H]1OC (stereo partly drawn) [Ex. 41, 6-O-(ethylamino)acetyl fumagillol] 20

Note, next up: CO[C@@H]1[C@H](OC(=O)CNC(C)C(C)(C)C)CC[C@]2(CO2)[C@H]1[C@@]1(C)OC1CC=C(C)C (stereo partly drawn) 162

Note, next up: CO[C@@H]1[C@H](OC(=O)NC(=O)CCl)CC[C@]2(CO2)[C@H]1[C@@]1(C)O[C@@H]1CC=C(C)C [TNP-470, reference compound] 29

// provenance: patent US7087768B2
